- system: Mitogen-activated protein kinase 14 (Homo sapiens, UniProt Q16539)
- Sequence (Q16539 whole entry): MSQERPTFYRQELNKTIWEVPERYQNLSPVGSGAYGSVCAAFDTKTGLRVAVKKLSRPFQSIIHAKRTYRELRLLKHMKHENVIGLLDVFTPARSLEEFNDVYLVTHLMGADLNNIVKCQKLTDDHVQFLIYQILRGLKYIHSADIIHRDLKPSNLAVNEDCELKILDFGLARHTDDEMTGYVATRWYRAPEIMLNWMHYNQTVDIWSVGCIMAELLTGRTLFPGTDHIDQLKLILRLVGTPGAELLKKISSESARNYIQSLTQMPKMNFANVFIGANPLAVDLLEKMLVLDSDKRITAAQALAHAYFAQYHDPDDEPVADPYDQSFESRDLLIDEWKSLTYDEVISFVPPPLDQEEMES
- protocol_details: Inhibition of p38alpha (unknown origin) measured after 40 mins in presence of [gamma-33P]ATP by microbeta liquid scintillation counting analysis
- Type: toxicity
pIC50: −log10 of the molar value.
Entries and their pIC50

{"columns": ["test_smiles", "pIC50"],
 "data": [
  ["CNC(=O)/C=C/c1c(-c2c(-c3cccc(C)n3)nn3c2CCC3)ccc2ncnn12", "< 5.48"],
  ["Cc1cccc(-c2nn3c(c2-c2ccc4ncnn4c2CNc2cc[nH]n2)CCC3)n1", "< 5.00"],
  ["Cc1cccc(-c2nn(Cc3cccc(C#N)c3)cc2-c2ccc3ncnn3c2C=CC(N)=O)n1", "< 5.48"],
  ["Cc1cccc(-c2nn(C)c(C)c2-c2ccc3ncnn3c2/C=C/C(N)=O)n1", "< 5.00"],
  ["Cc1cccc(-c2nn3c(c2-c2ccc4ncnn4c2/C=C/C(C)(C)O)CCC3)n1", "< 5.00"],
  ["Cc1cccc(-c2nn3c(c2-c2ccc4ncnn4c2/C=C/C(=O)NO)CCC3)n1", "< 5.48"]
]}

Each recorded value in this set is attributed to ChEMBL document CHEMBL6182942.
